Provenance of the data: the supplement of paper PMC9262897

Kindly state growth for each of the entries shown.
- System: E. coli TESEC Mtb Alr
- measurement_notes: growth (OD600 after 10 h); higher = more growth (less inhibition)
- condition_details: arabinose 10000000 nM; compound 0.1 mM; raw OD600 reference: median of DMSO wells […], cell-free background 0.052
Counter-ions that a name gives are not always drawn.
Please give only the number in your answer, with no unit.

## Input Item C[C@@H](O[C@H]1OCCN(Cc2n[nH]c(=O)[nH]2)[C@H]1c1ccc(F)cc1)c1cc(C(F)(F)F)cc(C(F)(F)F)c1 [Aprepitant] with E. coli TESEC Mtb Alr - growth?
## Output 0.0589

## Input Also, CCCN[C@H]1CCc2nc(N)sc2C1 [Pramipexole dihydrochloride] please.
## Output 0.363

## Input Also, Cc1ccnc2c1NC(=O)c1cccnc1N2C1CC1 [Nevirapine] please.
## Output 0.343

## Input Also, CC(C)(C)NC(=O)[C@@H]1CN(Cc2cccnc2)CCN1C[C@@H](O)C[C@@H](Cc1ccccc1)C(=O)N[C@H]1c2ccccc2C[C@H]1O [Indinavir sulfate] please.
## Output 0.281

## Input Also, CCC(NC(C)C)C(O)c1ccc(O)c(O)c1 (stereo unspecified) [Isoetharine mesylate salt] please.
## Output 0.344

## Input Also, CCN(CC)CC(=O)Nc1c(C)cccc1C [Lidocaine hydrochloride] please.
## Output 0.345

## Input Also, CC(=O)O[C@]1(C(C)=O)CC[C@H]2[C@@H]3C=C(Cl)C4=CC(=O)CC[C@]4(C)[C@H]3CC[C@@]21C [Chlormadinone acetate] please.
## Output 0.203

## Input Also, COc1cc2nc(N(C)CCCNC(=O)C3CCCO3)nc(N)c2cc1OC (stereo unspecified) [Alfuzosin hydrochloride] please.
## Output 0.318

## Input Also, O=C1O[C@H]([C@@H](O)CO)C(O)=C1O [Ascorbic acid] please.
## Output 0.35

## Input Also, C=C1c2cccc(O)c2C(O)=C2C(=O)[C@]3(O)C(O)=C(C(N)=O)C(=O)[C@@H](N(C)C)[C@@H]3[C@@H](O)[C@H]12 [Methacycline hydrochloride] please.
## Output 0.066

## Input Also, O=C(O)COC(=O)Cc1ccccc1Nc1c(Cl)cccc1Cl [Aceclofenac] please.
## Output 0.244
